Test system: HT-29
Assay: Cytotoxicity against human HT29 cells incubated for 24 hrs by MTT assay
Type: functional, cell-based
Details: HT-29, 24 h
measured-parameter: IC50 (µM)
Unit µM implied. Number only.

Qu. State, in one line, measured IC50 of "CC(C)=CCc1cc(C(=O)CCc2ccc(O)c(O)c2)c(O)cc1O"
Ans. 3.8

----------
Tested on: MCF7
Test: Cytotoxicity against human MCF7 cells incubated for 24 hrs by MTT assay
Type: functional, cell-based
Conditions: MCF7, 24 h
measured-parameter: IC50 (µM)
Unit µM implied. Number only.

Qu. State, in one line, measured IC50 of "CC(C)=CCc1cc(C(=O)CCc2ccc(O)c(O)c2)c(O)cc1O"
Ans. 3.8
